- systemTested: KRAS G13D (Homo sapiens (Human), UniProt P01116+P62937, G13D)
- Sequence (P01116-2 other isoform, or with tags, fused parts or gaps G13D, one chain of several): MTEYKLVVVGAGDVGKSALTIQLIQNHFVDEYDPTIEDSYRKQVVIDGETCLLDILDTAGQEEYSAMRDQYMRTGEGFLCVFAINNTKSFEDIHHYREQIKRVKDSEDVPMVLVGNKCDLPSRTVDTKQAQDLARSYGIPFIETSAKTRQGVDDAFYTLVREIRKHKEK
- testProtocol: Ras-Raf (BRAF RBD) disruption / FRET / MOA assay, KRAS G13D
- Assay type: biochemical
- experimentalParameters: read-out: IC50* KRAS G13D FRET data
pIC50: −log10 of the molar value.
assayEndpoint: pIC50

Returns the measured pIC50 for the input compound. Input: C=CC(=O)N1CCOC2(CCN(C(=O)N(C)[C@H](C(=O)N[C@H]3Cc4cccc(c4)-c4ccc5c(c4)c(c(-c4cccnc4[C@H](C)OC)n5CC(F)(F)F)CC(C)(C)COC(=O)[C@@H]4CCCN(N4)C3=O)C(C)C)CC2)C1 (atropisomer, axis not shown) [Example A608] 6.00 to 7.00

Query: pIC50; subject: C=CC(=O)N1CC(OC[C@H](C(=O)N[C@H]2C[C@H]3CN(CCO3)c3ccc4c(c3)c(c(-c3cccnc3[C@H](C)OC)n4CC(F)(F)F)CC(C)(C)COC(=O)[C@@H]3CCCN(N3)C2=O)C(C)C)C1 (atropisomer, axis not shown) [Example A723] < 5.00

# lookup: pIC50 of C=CC(=O)N1C[C@@H](C)N(C(=O)N(C)[C@H](C(=O)N[C@H]2Cc3nc(cs3)-c3ccc4c(c3)c(c(-c3cccnc3[C@H](C)OC)n4CC)CC(C)(C)COC(=O)[C@@H]3CCCN(N3)C2=O)C(C)C)[C@@H](C)C1 (atropisomer, axis not shown) [Example A387] 6.00 to 7.00

Would you kindly share the measured pIC50 for C=CC(=O)N1CC[C@H](C(=O)N(C)[C@H](C(=O)N[C@H]2Cc3cccc(c3)-c3ccc4c(c3)c(c(-c3ccccc3[C@H](C)OC)n4CC)CC(C)(C)COC(=O)[C@@H]3CCCN(N3)C2=O)C(C)C)C1 (atropisomer, axis not shown) [Example A114] ? < 5.00

---

- systemTested: KRAS G13D (Homo sapiens (Human), UniProt P01116+P62937, G13D)
- testProtocol: Ras-Raf (BRAF RBD) disruption / FRET / MOA assay, KRAS G13D
- Format: biochemical
- experimentalParameters: read-out: IC50* KRAS G13D FRET data
Exercise: for every item that follows, state its recorded IC50.

Fill in: IC50 of CCn1c(-c2cccnc2[C@H](C)OC)c2c3cc(ccc31)-c1csc(n1)C[C@H](NC(=O)[C@H](C(C)C)N1CCC3(CCN(C(=O)C#CC(C)(C)N(C)C)CC3)C1=O)C(=O)N1CCC[C@H](N1)C(=O)OCC(C)(C)C2 (atropisomer, axis not shown) [Example A322] is ___ > 10 µM

If you can, please state the reported IC50 value of CC#CC(=O)N1CC[C@]2(CCN([C@H](C(=O)N[C@H]3Cc4nc(cs4)-c4ccc5c(c4)c(c(-c4cccnc4[C@H](C)OC)n5CC)CC(C)(C)COC(=O)[C@@H]4CCCN(N4)C3=O)C(C)C)C2=O)C1 (atropisomer, axis not shown) [Example A511] . 1 to 10 µM

---

- systemTested: NRAS Q61R (Homo sapiens (Human), UniProt P01111+P62937, Q61R)
- Sequence (P01111 whole entry Q61R): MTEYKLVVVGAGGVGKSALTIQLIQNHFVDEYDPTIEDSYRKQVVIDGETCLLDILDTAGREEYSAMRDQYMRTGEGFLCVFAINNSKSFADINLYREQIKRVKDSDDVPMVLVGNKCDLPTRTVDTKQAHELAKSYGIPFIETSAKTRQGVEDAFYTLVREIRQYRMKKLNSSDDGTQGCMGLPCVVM
- Sequence (P62937 whole entry): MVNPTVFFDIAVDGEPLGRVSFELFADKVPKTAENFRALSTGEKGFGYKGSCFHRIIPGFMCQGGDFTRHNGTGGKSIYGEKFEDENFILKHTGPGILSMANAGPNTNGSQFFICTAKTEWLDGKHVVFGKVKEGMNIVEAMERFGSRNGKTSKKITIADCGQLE
- testProtocol: Ras-Raf (BRAF RBD) disruption / FRET / MOA assay, NRAS Q61R
- Type: biochemical
- experimentalParameters: NRAS Q61R; Ras-Raf disruption/FRET/MOA assay; read-out: IC50* NRAS Q61R FRET data
- Description: The purpose of this biochemical assay is to measure the ability of test compounds to facilitate ternary complex formation between a nucleotide-loaded Ras isoform and cyclophilin A; the resulting ternary complex disrupts binding to a BRAF^RBD construct, inhibiting Ras signaling through a RAF effector. […]. Compound is present in plate wells as a 10-point 3-fold dilution series starting at a final concentration of 30 μM. […]
pIC50: −log10 of the molar value.
Task for the reader: assign each of the following compounds its reported pIC50.

Look up pIC50 for this compound: CCn1c(-c2cccnc2[C@H](C)OC)c2c3cc(ccc31)N1CCC[C@@H](C[C@H](NC(=O)[C@@H](COC3CN(C(=O)C#CC(C)(C)N(C)C)C3)C(C)C)C(=O)N3CCC[C@H](N3)C(=O)OCC(C)(C)C2)C1 (atropisomer, axis not shown) < 5.00

# query: pIC50 of entry C=CC(=O)N1C[C@@H](C)N(C(=O)N(C)[C@H](C(=O)N[C@H]2Cc3nc(cs3)-c3ccc4c(c3)c(c(-c3cccnc3[C@H](C)OC)n4CC)CC(C)(C)COC(=O)[C@@H]3CCCN(N3)C2=O)C(C)C)[C@@H](C)C1 (atropisomer, axis not shown) 7.00 to 8.00

What pIC50 value was documented for this compound, C=CC(=O)N1CC[C@H](C(=O)N(C)[C@H](C(=O)N[C@H]2Cc3cc(O)cc(c3)-c3ccc4c(c3)c(c(-c3cccnc3[C@@H](OC)C3CC3)n4CC)CC(C)(C)COC(=O)[C@@H]3CCCN(N3)C2=O)C(C)C)C1 (atropisomer, axis not shown) ? 6.00 to 7.00

Find the recorded pIC50 belonging to C=CC(=O)N1CC[C@@]2(C1)CN(C(=O)N(C)[C@H](C(=O)N[C@H]1Cc3nc(cs3)-c3ccc4c(c3)c(c(-c3cccnc3[C@H](C)OC)n4CC)CC(C)(C)COC(=O)[C@@H]3CCCN(N3)C1=O)C(C)C)CCO2 (atropisomer, axis not shown) and report it. 6.00 to 7.00
